tgt: human cannabinoid receptor type II (CB2R) (Homo sapiens)
Construct: host or cells: CHO cells
test.details: Human CB2R cAMP agonist cellular functional assay (Eurofins Cerep)
Format: cell-based
measurement.parameters: EC50, intracellular cAMP, CHO-hCB2R; n = 3
measured.endpoint: EC50 (µM)
Give the number; µM is assumed, so skip it.

Query EC50 for Cc1ccc(-n2c(C)cc(C)c(C(=O)NC34CC5CC(CC(C5)C3)C4)c2=O)cc1
0.11

* * *

measured.endpoint: melting point

Query melting point for Cc1cc(C)n(-c2ccc(O)cc2)c(=O)c1C(=O)Nc1nc2ccccc2[nH]1
176 to 178 °C

Query melting point for Cc1cc(C)n(-c2ccccc2)c(=O)c1C(=O)Nc1nc2ccccc2o1
228 to 230 °C

* * *

tgt: human cannabinoid receptor type II (CB2R) (Homo sapiens, UniProt P34972)
Construct: host or cells: CHO cells
Sequence (P34972 whole entry): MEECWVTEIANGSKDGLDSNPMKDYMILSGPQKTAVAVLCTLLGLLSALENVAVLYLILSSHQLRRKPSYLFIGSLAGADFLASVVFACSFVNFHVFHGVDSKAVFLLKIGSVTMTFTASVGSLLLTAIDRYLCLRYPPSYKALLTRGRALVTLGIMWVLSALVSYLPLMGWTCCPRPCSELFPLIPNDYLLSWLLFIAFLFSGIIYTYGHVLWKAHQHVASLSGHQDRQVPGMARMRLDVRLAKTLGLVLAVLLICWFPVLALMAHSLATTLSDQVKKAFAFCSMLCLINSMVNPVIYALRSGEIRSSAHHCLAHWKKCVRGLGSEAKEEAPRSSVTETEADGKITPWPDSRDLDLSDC
test.details: Human CB2R cAMP agonist cellular functional assay (Eurofins Cerep)
Type: cell-based
measurement.parameters: EC50, intracellular cAMP, CHO-hCB2R
measured.endpoint: pEC50
Friendly reminder that pEC50 comes from taking -log10 of the concentration in mol/L.

Look up human cannabinoid receptor type II (CB2R) (Homo sapiens, UniProt P34972) data: pEC50 of Cc1ccc(-n2c(C)cc(C)c(C(=O)NC34CC5CC(CC(C5)C3)C4)c2=O)cc1 [Compound 8d] , then report it.
6.95

* * *

tgt: human cannabinoid receptor type II (CB2R) (Homo sapiens)
Construct: host or cells: CHO cells
test.details: Human CB2R cAMP agonist cellular functional assay (Eurofins Cerep)
Type: cell-based
measurement.parameters: 10 µM; CHO cells expressing hCB2R; percentage relative to control (100 nM WIN55212-2); rounded mean of two assays
% CB2R Agonist Response for assorted molecules

{"input.smiles": "Cc1cc(C)n(-c2ccccc2)c(=O)c1C(=O)Nc1nc2ccccc2o1", "tgt": "human cannabinoid receptor type II (CB2R) (Homo sapiens)", "% CB2R Agonist Response": "13%"}
{"input.smiles": "Cc1cc(C)n(-c2ccccc2)c(=O)c1C(=O)NC1CCCCC1", "tgt": "human cannabinoid receptor type II (CB2R) (Homo sapiens)", "% CB2R Agonist Response": "12%"}
{"input.smiles": "Cc1cc(C)n(-c2ccc(O)cc2)c(=O)c1C(=O)NC1CCCCC1", "tgt": "human cannabinoid receptor type II (CB2R) (Homo sapiens)", "% CB2R Agonist Response": "4%"}
{"input.smiles": "Cc1cc(C)n(-c2ccc(O)cc2)c(=O)c1C(=O)NC1CCCCCC1", "tgt": "human cannabinoid receptor type II (CB2R) (Homo sapiens)", "% CB2R Agonist Response": "0%"}

Now take the following molecule into account.
Query % CB2R Agonist Response for Cc1ccc(-n2c(C)cc(C)c(C(=O)Nc3nc4ccccc4o3)c2=O)cc1
0%

* * *

test.details: Neutral red uptake cell viability assay, HL-60
measurement.parameters: human
measured.endpoint: viability at 72 h, 200 µM (%)
Give the number; % is assumed, so skip it.

Query viability at 72 h, 200 µM for Cc1ccc(-n2c(C)cc(C)c(C(=O)NC34CC5CC(CC(C5)C3)C4)c2=O)cc1 [Compound 8d]
10

* * *

% CB2R Agonist Response for assorted compounds
tgt: human cannabinoid receptor type II (CB2R) (Homo sapiens, UniProt P34972)
Construct: host or cells: CHO cells
test.details: Human CB2R cAMP agonist cellular functional assay (Eurofins Cerep)
Assay type: cell-based
measurement.parameters: 10 µM; CHO cells expressing hCB2R; percentage relative to control (100 nM WIN55212-2); rounded mean of two assays
A bare number is not enough; add the unit after it.

{"input.smiles": "Cc1ccc(-n2c(C)cc(C)c(C(=O)NC3CCCCCC3)c2=O)cc1", "% CB2R Agonist Response": "0%"}
{"input.smiles": "Cc1cc(C)n(-c2ccc(O)cc2)c(=O)c1C(=O)Nc1nc2ccccc2[nH]1", "% CB2R Agonist Response": "13%"}
{"input.smiles": "Cc1cc(C)n(-c2ccccc2)c(=O)c1C(=O)Nc1nc2ccccc2[nH]1", "% CB2R Agonist Response": "8%"}

Now take the following compound into account.
Query % CB2R Agonist Response for Cc1ccc(-n2c(C)cc(C)c(C(=O)Nc3nc4ccccc4[nH]3)c2=O)cc1
0%
